# Tested on: Trypanosoma brucei
# procedure-details: Trypanosoma brucei 72 hour study
# Type: functional, organism-based
# Set-up: scale not given: in the data most compounds retested in dose-response had high values
# measurement-conditions: 30 µM; 30.03 µM
About 960 (1.5%) of roughly 66,000 compounds showed an effect of 50% or more. The list comes from a sample in which strong results are over-represented; it also holds close analogues and randomly drawn compounds.
endpoint-name: Percent Effect (%)
Give your result in % as a bare value.

CN(Cc1ccsc1)C(=O)Nc1cccnc1N1CCCC1 ... -52.54
Clc1ccccc1C1(c2ccnc(C3CCCC3)n2)CCNCC1 ... 101.7
O=C(N1CCOCC1)[C@@]12CCO[C@@H]1CCN(C1CCC1)C2.O=C(O)C(F)(F)F ... -13.96
COc1ccc(CN2CCC3(CCCN(c4ncc(F)cn4)C3)C2)cc1.O=C(O)C(F)(F)F (stereo not drawn) ... 46.33
Cn1cc(-c2ncc(C(=O)NCCCn3ccccc3=O)s2)cn1 ... 73.43

Shifting focus to the molecule that follows.
Noted for c1ccc2c(c1)CCN(c1nc(-c3ccncc3)nc3c1CCNC3)C2 : its Percent Effect reads -16.52

---

# Tested on: Trypanosoma brucei
# procedure-details: Trypanosoma brucei 72 hour study
# Type: functional, organism-based
# Set-up: scale not given: in the data most compounds retested in dose-response had high values
# measurement-conditions: 30 µM; 30.03 µM
Out of some 66,000 compounds screened, about 960 (1.5%) showed an effect of 50% or more. The sample holds strong results, similar compounds and a random draw of the others, so the mix is not that of the screen.
Below, each entry is listed alongside its reported Percent Effect.
Give just the number in %; leave the unit off.

Example results:
O=C(COCC1CC[C@H]2[C@H](CCN2c2ncccn2)O1)N1CCCC1.O=C(O)C(F)(F)F (stereo not given in full) ... -11.45
CCOCCCn1c(NC(=O)c2ccc(C)nc2)nc2ccccc21 ... 8.402
CCOCC(=O)N1C[C@@H](NC(C)=O)[C@H](c2ccc(OC)cc2)C1 ... -1.358
CN1CC(=O)N(c2cccc(F)c2)CC12CCN(CC1CCOCC1)C2.O=C(O)C(F)(F)F.O=C(O)C(F)(F)F (stereo not given) ... 9.991
CC(C)CCN1C[C@H]2C[C@H](C(=O)NCc3ccccc3)[C@@H](C1)O2.O=C(O)C(F)(F)F ... 29.18

Observed Percent Effect, Trypanosoma brucei, COc1cccc(-c2noc(C3CCN(Cc4cn(C)nc4C)C3)n2)c1 (stereo not given) : 63.09

Fill in: Trypanosoma brucei Percent Effect for CCOCCCn1c(NC(=O)c2scnc2C)nc2ccccc21 = 105.1

The observed Percent Effect for CC(C)(C)n1ncc(NCC(O)c2ccc(F)c(F)c2)c(Cl)c1=O (stereo not given) when tested with Trypanosoma brucei stands at -7.617

The value of Percent Effect recorded for O=C(NC1CCOCC1)C1CC(=O)N(Cc2ccccn2)C1 (stereo not given) when tested on Trypanosoma brucei reads 11.72

Entry COC1COC2(CCN(Cc3ccccc3C)CC2)C1.O=C(O)C(F)(F)F (stereo not given) under Trypanosoma brucei had Percent Effect of -3.278

# value of Percent Effect, Trypanosoma brucei, item CN(Cc1cccnc1)C1CC2(CCN(c3ccccn3)CC2)C1.O=C(O)C(F)(F)F.O=C(O)C(F)(F)F.O=C(O)C(F)(F)F = 54.5

Trypanosoma brucei assay, compound COc1ccc(C)cc1CNCc1ccc(-n2nc(C)cc2C)nc1 , recorded Percent Effect = -31.15

Item Cl.O=C(Nc1nc2c(s1)CNCC2)NC1CCCC1 was tested on Trypanosoma brucei; the reported Percent Effect is -50.11

With Trypanosoma brucei as the test system, Fc1ccccc1CC1CCN(Cc2cscn2)CC1 showed Percent Effect of -2.509

Observed Percent Effect on Trypanosoma brucei, entry O=C(COC[C@H]1CC[C@H]2[C@H](CCN2c2ccccn2)O1)N1CCCC1.O=C(O)C(F)(F)F , equals -34.45
